Assay: Pharmacokinetic study in rats after oral administration (HPLC-MS/MS)
Type: in vivo, Sprague–Dawley (SD) rats
Settings: male, Sprague-Dawley, rat, in vivo, mogroside V 200 mg/kg or LHG extract 12.5 ml/kg, mogroside V in plasma
Description: Male Sprague–Dawley (SD) rats (240 ± 20 g) were purchased from the Experimental Animal Center of Xi’an Jiaotong University (Xi’an, China). […] All the plasma samples were analyzed on an Inertsil ODS-3-C18 column (5 μm, 4.6 mm × 150 mm). The mobile phase for quantitative determination of mogroside V in rat plasma consisted of 29% acetonitrile/0.2% (v/v) formic acid at a flow rate of 0.6 ml/min. […]
readoutLabel: Tmax
State the value, then name its unit.

For C[C@H](CC[C@@H](O[C@@H]1O[C@H](CO[C@@H]2O[C@H](CO)[C@@H](O)[C@H](O)[C@H]2O)[C@@H](O)[C@H](O)[C@H]1O[C@@H]1O[C@H](CO)[C@@H](O)[C@H](O)[C@H]1O)C(C)(C)O)[C@H]1CC[C@@]2(C)[C@@H]3CC=C4[C@@H](CC[C@H](O[C@@H]5O[C@H](CO[C@@H]6O[C@H](CO)[C@@H](O)[C@H](O)[C@H]6O)[C@@H](O)[C@H](O)[C@H]5O)C4(C)C)[C@]3(C)[C@H](O)C[C@]12C [Mogroside V] , what is its reported Tmax? 45 min
